# Test system: SK-MEL-2 melanoma
# protocol.summary: NCI-60 one-dose screen, 48 h (100 = growth as untreated, 0 = no growth, -100 = all killed)
# measurement.context: 10 µM unless noted
The panel holds about 83,000 compounds, 20% with a hit somewhere; the sample as a whole holds those more often.
Lab note: cut-off is 90%. Strictly less in growth is 1 (yes). Exactly 90% or more is 0 (no).

- compound: "CCCCCCOc1ccc(C(=N)N(CCCC)CCCC)c2ccccc12"
  group.label: "1 (yes)"

In: Input O=C(Nc1ccc(Nc2ncccn2)cc1)NC1C=c2ccccc2=CC1 (centres undefined) ; condition: growth strictly below 90%. Does it hold?
Out: 0 (no)

In: Input CN1CCN(C(=O)OCc2nc3c(N4CCOCC4)nc(-c4ccccc4)nc3n2C)CC1 ; condition: growth strictly below 90%. Does it hold?
Out: 1 (yes)

In: Input COc1ccc(/C=N/C2=C(C#N)C(c3ccccc3[N+](=O)[O-])c3ccc4ccccc4c3O2)cc1 (centres undefined) ; condition: growth strictly below 90%. Does it hold?
Out: 0 (no)

In: Input COc1ccc(-c2nc(SCC(C)C)nc(N/N=C(/C)c3ccc(OC)c(OC)c3)c2C#N)cc1 ; condition: growth strictly below 90%. Does it hold?
Out: 0 (no)

In: Input O=C(Nc1nc2ccc(S(=O)(=O)Nc3ccc(C4(C(F)(F)F)CC4)cc3)cc2[nH]1)c1cnccn1 ; condition: growth strictly below 90%. Does it hold?
Out: 1 (yes)

In: Input CS(=O)(=O)Nc1cc(-c2ccc3ncnc(Nc4ccc5[nH]ncc5c4)c3c2)cnc1Cl ; condition: growth strictly below 90%. Does it hold?
Out: 1 (yes)

In: Input C#CCNC(=O)[C@H](Cc1ccccc1)NC(=O)[C@]12CC[C@@H](C(=C)C)[C@@H]1[C@H]1CC[C@@H]3[C@@]4(C)Cc5c([nH]c6ccccc56)C(C)(C)[C@@H]4CC[C@@]3(C)[C@]1(C)CC2 ; condition: growth strictly below 90%. Does it hold?
Out: 0 (no)

In: Input CC(N)C(=O)NNc1n[nH]c(=S)n1N (centres undefined) ; condition: growth strictly below 90%. Does it hold?
Out: 0 (no)

In: Input COc1ccc2c(/C=C3/C(=O)NC(=S)NC3C)cc(=O)oc2c1 (centres undefined) ; condition: growth strictly below 90%. Does it hold?
Out: 1 (yes)

----------
The entries below come with measured growth values attached.
# System: RPMI-8226 leukemia
# protocol.summary: NCI-60 one-dose screen, 48 h (100 = growth as untreated, 0 = no growth, -100 = all killed)
# measurement.context: 10 µM unless noted
This is part of a sample that, as a whole, favours compounds with a hit. Of some 83,000 tested, about 20% had one in any assay. Calls of active or inactive are those of the source. The calls were made as follows: active = growth percent below 10; inactive = the rest.

// below: answered compounds
- compound: "COc1cc(NCC(O)CN(CC(C)C)CC(C)C)c2nc(C)ccc2c1 (stereo not given)"
  result: "99.4% (inactive)"
- compound: "O=C(Nc1nc(-c2ccc(Br)cc2)cs1)c1cc(-c2ccc(Br)cc2)nc2ccc(Cl)cc12"
  result: "85% (inactive)"
- compound: "COc1ccc(Cc2nc3cc(OC)c(OC)cc3c(=O)[nH]2)cc1"
  result: "52.6% (inactive)"

In: Would you kindly share the measured growth for O=C1NC(=S)NC(=O)C1=Cc1cccc(C=C2C(=O)NC(=S)NC2=O)c1 ?
Out: 101% (inactive)

In: Would you kindly share the measured growth for COc1cc(NCCCN(CC(C)C)CC(C)C)c2ncccc2c1 ?
Out: 78% (inactive)

In: Would you kindly share the measured growth for COc1ccc(-c2nc(SC)nc(N3CCOCC3)c2C#N)cc1 ?
Out: 91.2% (inactive)

In: Would you kindly share the measured growth for Cc1ccc(O)c(C(=O)O)c1 ?
Out: 103% (inactive)

In: Would you kindly share the measured growth for CCOC(=O)c1c(C)nc2c(c1N)C(=O)C(=O)N2Cc1ccc(C(F)(F)F)cc1 ?
Out: 27.2% (inactive)

In: Would you kindly share the measured growth for CN(C)Cc1c(-c2ccccc2)[nH]c2ccccc12 ?
Out: 85.7% (inactive)

In: Would you kindly share the measured growth for COc1cccc(CNCCN2C(=O)c3ccc4c5c(ccc(c35)C2=O)C(=O)N(CCNCc2cccc(OC)c2)C4=O)c1 ?
Out: -14.8% (active)

In: Would you kindly share the measured growth for COc1ccc(CNCCN2C(=O)c3ccc4c5c(ccc(c35)C2=O)C(=O)N(CCNCc2ccc(OC)cc2)C4=O)cc1 ?
Out: -35.2% (active)

In: Would you kindly share the measured growth for O=C(Nc1ccc2ncnc(Nc3ccc(Oc4cccc(F)c4)c(Cl)c3)c2c1)c1ccc(CN2CCOCC2)cc1 ?
Out: -16.4% (active)

In: Would you kindly share the measured growth for Nc1ncc(C#Cc2cncc(NC(=O)c3cccc(C(F)(F)F)c3)c2)c2cccnc12 ?
Out: 60.7% (inactive)

----------
# Test system: SF-295 CNS
# protocol.summary: NCI-60 one-dose screen, 48 h (100 = growth as untreated, 0 = no growth, -100 = all killed)
# measurement.context: 10 µM unless noted
This is part of a sample that, as a whole, favours compounds with a hit. Of some 83,000 tested, about 20% had one in any assay.
Outcome label depends on growth relative to 50%: at/above gives label 1, below gives label 0.

- compound: "Cc1c2c(cc[n+]1Cc1ccc(F)cc1)c1ccc(OCc3cccc(F)c3)cc1n2Cc1cccc(F)c1"
  group.label: "label 0"

Now let's try a different one.
In: Textbook exercise: given the entry O=S(=O)(NCCNc1nccc(-c2c(-c3ccc(F)c(O)c3)nc3sccn23)n1)c1ccccc1 , state whether its growth is greater than or equal to 50%.
Out: label 1

----------
The entries below come with measured growth values attached.
# Test system: MOLT-4 leukemia
# protocol.summary: NCI-60 one-dose screen, 48 h (100 = growth as untreated, 0 = no growth, -100 = all killed)
# measurement.context: 10 µM unless noted
This is part of a sample that, as a whole, favours compounds with a hit. Of some 83,000 tested, about 20% had one in any assay.
Give the number; % is assumed, so skip it.

- compound: "COc1cccc(NC(=O)c2cccc(-c3cc(=O)c4c(OC)c(OC)c(OC)cc4o3)c2)c1"
  growth, %: 48.5

In: Provide the documented growth with MOLT-4 leukemia as the system for NNC(=O)/C(=C\c1ccc([N+](=O)[O-])cc1)CC(=O)c1ccc(Cl)c(Cl)c1
Out: 61.4

In: Provide the documented growth with MOLT-4 leukemia as the system for CS(=O)(=O)c1ccc(-c2cc3c(oc2=O)-c2ccccc2OC3O)cc1 (centres undefined)
Out: 86.3

In: Provide the documented growth with MOLT-4 leukemia as the system for COc1ccc(Cn2nc(-c3ccccc3)c3c2CCc2cnoc2-3)cc1
Out: 52.7

In: Provide the documented growth with MOLT-4 leukemia as the system for CN1CCN(c2ccc(NC3=C(Cl)C(=O)c4ncccc4C3=O)cc2C#N)CC1
Out: -10.8

In: Provide the documented growth with MOLT-4 leukemia as the system for CC(=O)OCCCCCNc1ccccc1
Out: 91.3

In: Provide the documented growth with MOLT-4 leukemia as the system for O=C(CSc1nc2sc3c(c2c(=O)n1Cc1ccccc1)CCCC3)N1CCN(c2ccccc2)CC1
Out: 92.8

----------
# Test system: NCI/ADR-RES ovarian
# protocol.summary: NCI-60 one-dose screen, 48 h (100 = growth as untreated, 0 = no growth, -100 = all killed)
# measurement.context: 10 µM unless noted
About 83,000 compounds went through this panel and 20% of them were active in at least one assay; those are over-represented in the sample as a whole.
Lab note: cut-off is 20%. Strictly less in growth is Yes. Exactly 20% or more is No.

- compound: "O=C(N/N=C/c1ccc(O)c(O)c1)c1sc2ccccc2c1Cl"
  group.label: "No"
- compound: "CCCC/C(=N\\N=C(N)N)c1ccc(F)cc1"
  group.label: "Yes"
- compound: "Cn1c(COC(=O)NCCc2ccccn2)nc2c(N3CCOCC3)nc(Cl)nc21"
  group.label: "Yes"
- compound: "CC(=O)N1c2ccccc2NC2=C(C(=O)N(Cc3ccccc3)C2(C)C)C1c1ccco1 (stereo not drawn)"
  group.label: "No"
- compound: "CC[C@H](C)[C@@H]1NC(=O)[C@H](Cc2ccc(O)cc2)N(C)C(=O)[C@H](Cc2ccccc2)NC(=O)CN(C)C(=O)[C@@H]2CCCN2C(=O)[C@@H](Cc2ccccc2)N(C)C(=O)[C@H](CC(C)C)NC1=O"
  group.label: "No"
- compound: "COc1ccc(C(=O)c2cc3c(N)c(C(=O)Nc4cccc(OC)c4)sc3nc2C)cc1"
  group.label: "Yes"

In: Input COC(=O)Nc1nc2ccc(C(=O)c3cccc(I)c3)cc2[nH]1 ; condition: growth strictly below 20%. Does it hold?
Out: Yes

In: Input COc1cc(NCC(O)CN(CC(C)C)C2CCCC2)c2ncccc2c1 (stereo not drawn) ; condition: growth strictly below 20%. Does it hold?
Out: No

# credit: PubChem BioAssay (NCI)
